assay.details: amyloid nucleation score (Sup35N fusion, yeast selection) (log enrichment); library NNK2; higher = more nucleation; inactive = no reads after selection;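 note: zero at mode of non-aggregating sequences after 7 days selection at 30°C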
measured.property: amyloid nucleation score

Q: Form field: reported amyloid nucleation score of GLWVSHEVCIGCVF
Ans: inactive

Q: Cool, now GQFGVCITSPARQLSYD
Ans: inactive

Q: Cool, now AFYIRLIAREP
Ans: inactive

Q: Cool, now YLQVWYTREFYIFRGKMDLL
Ans: inactive

Q: Cool, now HMNYKYFWGGLFNRMLGQLN
Ans: inactive

Below are 4 sequences. Give each one its amyloid nucleation score.
1. MDNNVNNRSPFLICRMMDNI
2. TAGFRILRRHFSIGVGSRTW
3. QYDIVPNVSGNYPNGIFKDR
4. FFMPKGTLRSIGSLFR

Ans:
["inactive", "inactive", "inactive", -1.65]

Below are 4 sequences. Give each one its amyloid nucleation score.
1. RPRVVTQLFMYLNDCRGSPP
2. CSSTAVFTRLIKADIWVRSA
3. LQMSGTSR
4. RISVYRPVGVLLF

Ans:
1: 6.69; 2: -1.35; 3: 0.265; 4: 0.755

Ref: the supplement of paper PMC12042874
